- Tested on: COLO 205 colon
- Test Summary: NCI tumour cell line growth inhibition, 48 h
TGI listing for selected molecules.
Measured Attribute: TGI

Molecule	Data Value
COC(=O)c1ccc(-c2nc(C#N)c(N)o2)cc1	> 100 µM
COC(=O)[C@H](C)N1C(=O)N[C@@H](C(C)C)C1=O	> 100 µM
CS(=O)(=O)OCCN1CCC2(CC1)SSC1(CCN(CCOS(C)(=O)=O)CC1)S2	> 100 µM
CC#C[C@@]1(O)CCCC[C@@H]1O	> 100 µM
CN(C)CCOC(=O)COc1ccc(Cl)cc1	> 100 µM
O=C(N/N=C\c1cccc2ccccc12)Nc1ccc([N+](=O)[O-])cc1	> 60.7 µM
O=C(Nn1c(-c2ccccc2)nc2ccccc2c1=O)c1ccccn1	> 100 µM
S=c1nc(-c2nc(=S)[nH]c3c2CCCCCCCCCC3)c2c([nH]1)CCCCCCCCCC2	> 100 µM
C=CN1C(=O)OC(c2ccccc2)C1c1ccccc1 (centres undefined)	> 100 µM

---

- Test system: LOX IMVI melanoma
- Test Summary: NCI tumour cell line growth inhibition, 48 h
Measured Attribute: TGI

Cpd Smiles	Measured Attribute	Data Value
C(=N\Nc1nnc2c(n1)[nH]c1ccccc12)/c1cccnc1	TGI	> 100 µM
Cc1cc2ccccc2c[n+]1CC(O)C[n+]1cc2ccccc2cc1C	TGI	> 100 µM
Cc1cccc(NC(=O)C(=O)C2C(=O)NC(=O)NC2=O)c1C	TGI	> 100 µM
COC(=O)c1sc(=S)sc1SCc1ccccc1CSc1sc(=S)sc1C(=O)OC	TGI	> 100 µM
CC(C)CCC[C@@H](C)[C@H]1CC[C@H]2[C@@H]3CC=C4C[C@@H](OC(=O)c5cccc6c(=O)c7ccccc7[nH]c56)CC[C@]4(C)[C@H]3CC[C@]12C	TGI	> 75 µM
S=c1nc(-c2nc(=S)[nH]c3c2CCCCCCCCCC3)c2c([nH]1)CCCCCCCCCC2	TGI	> 100 µM

---

- System: UACC-62 melanoma
- Test Summary: NCI tumour cell line growth inhibition, 48 h; in the data active means GI50 below about 0.43 µM; inactive means the rest
Outcome codes: yes = active, no = inactive

Compound	Label Value
C=C(CN1CCN(c2ccccc2OC)CC1)c1ccc(C(=O)Nc2ccccc2N)cc1	no
COc1cc(C)c(C(=O)O[C@H]2[C@H](O[C@H]3[C@@H](O)COC(O[C@H]4C[C@H]5[C@@H]6CC=C7C[C@@H](O)CC[C@]7(C)[C@H]6CC[C@]5(C)[C@H]4[C@H](C)C(=O)CCC(C)C)[C@@H]3OC(C)=O)OC[C@@H](O)[C@@H]2O)c(C)c1 (some centres undefined)	yes
COc1ccc(OC)c(-c2nc3sccn3c2/C=C2/C(=O)Nc3ccc(Cl)cc32)c1	no
CC1(C)N=C(N)N=C(N)N1c1cccc(C#N)c1	no
N#Cc1c(NC(=O)c2ccccc2)sc2c1CCC(=O)C2	yes
C=CN1C(=O)OC(c2ccccc2)C1c1ccccc1 (centres undefined)	no
OC(c1ccc(Cl)cc1)(c1ccc(Cl)cc1)C(O)(c1ccc(Cl)cc1)c1ccc(Cl)cc1	no
O=C(c1ccccc1Nc1ccnc(C(F)(F)F)c1)N1CCN(c2cccc(Cl)c2)CC1	no
COc1cc(-c2cc(-c3ccc(N(C)C)cc3)nc(N3CCOCC3)c2C#N)cc(OC)c1OC	no

---

TGI listing for selected compounds.
- System: UO-31 renal
- Test Summary: NCI tumour cell line growth inhibition, 48 h

Compound	Uom	Readout Relation	TGI
S=c1nc[nH]c2c1ncn2Cc1ccco1	µM	>	100
COc1ccc(/C=C/c2c(C(=O)/C=C/c3ccc(Cl)cc3)c(C)nc3ccccc23)cc1	µM	=	2.47
CCOC(=O)c1sc(-c2ccc(OS(=O)(=O)c3cccs3)c(C=O)c2)nc1C	µM	=	5.13
COc1cccc(NC(=O)CSc2nnc(-c3ccc(N=Cc4ccc(Cl)cc4)cc3)o2)c1	µM	=	32.7
O=C1/C(=C/c2ccccc2)CCc2ccc(Cl)nc21	µM	=	20.2
Nc1ccc(-c2nc3ccc4[nH]ncc4c3c3c2CCCC3)cc1F	µM	=	5.53
Cn1c2c([N+](=O)[O-])[se]nc2c(=O)n1-c1ccc([N+](=O)[O-])cc1	µM	=	3.59
CCOC(=O)c1ccc(C(=O)C(C(C)=O)C(=O)OC(C)(C)C)n1C (centres undefined)	µM	>	100
CC1=CC(O)C(O)C2(C)C1CC1OC(=O)C(O)C3C(C)C(O)C4(O)OCC13C42 (centres undefined)	µM	=	518
COC(=O)C1=C(O)C(C(=O)OC)[C@@]2(O)[C@@H](C(=O)OC)C(c3ccc(OC(=O)/C(=C/c4ccc(Cl)cc4)c4ccc(Cl)cc4)cc3)C[C@@H]1[C@@H]2C(=O)OC (some centres undefined)	µM	=	34.1
Cc1cnc[nH]c1=O	µM	>	100
S=C(N/N=C\C=N/NC(=S)N1CCCCCC1)N1CCCCCC1	µM	>	100
CNC(=O)CCC(NC(C)=O)C(=O)NC(Cc1ccc(NC(=O)CCCCC(C)=O)cc1)C(=O)NC(CCC(=O)NC)C(=O)NC (centres undefined)	µM	>	100
Cc1ccc2c(c1)C(=O)c1c-2n(CCCN)c(=O)c2cc([N+](=O)[O-])ccc12	µM	=	0.811
C#CCN1C(=O)/C(=c2\sc3n(c2=O)C2C(NN=3)N(CC)C(=O)N2CC)c2ccccc21 (centres undefined)	µM	>	100
CCN1CCN(c2nc(NNC(=O)Cc3ccccc3)nc(N3CCN(C(c4ccccc4)c4ccccc4)CC3)n2)CC1	µM	=	2.82
CCc1nnc(-n2c(C)nc3cc(Cl)ccc3c2=O)s1	µM	>	100
O=C(CC(O)(C(F)(F)F)C(F)(F)F)C(CCCl)C(O)(C(F)(F)F)C(F)(F)F (centres undefined)	µM	=	73.3
N#CC1=C(N)C(C#N)(C#N)C(c2ccc(F)cc2)C=C1C1CC1 (centres undefined)	µM	=	27.2
COC(=O)/C=C/C(=O)C1C(C(=O)OC)C2(C(=O)OC)CCC1(C(=O)OC)N2 (centres undefined)	µM	>	100
CCOC(=O)c1nc2c3c(ncn2n1)Oc1c(c(-c2ccccc2)nn1-c1ccccc1)C3c1ccc(Cl)cc1 (centres undefined)	µM	>	100
O=C(O)/C=C(/CC(=O)O)C(=O)O	µM	=	33.7
CCOC(=O)c1ccc2nc(NC(=O)COC(=O)CSc3nc(C)cc(C)n3)sc2c1	µM	=	38.5
CC(=O)O[C@H]1C#C/C=C\C#CC[C@@H]2C(=O)N(C(=O)OC(C)(C)C)[C@@H]12	µM	=	31.2
CN1/C(=C\C(I)C(I)C2=[N+](C)c3ccccc3C2(C)C)C(C)(C)c2ccccc21 (centres undefined)	µM	=	9.75
COc1cc2cc(C(=O)N3CC(CCl)c4c3cc(N)c3ccccc43)[nH]c2cc1OCCN(C)C (centres undefined)	µM	<	0.005
Cc1ccc(Cl)cc1Nc1nc(C(F)(F)F)ccc1C(=O)Nc1cccc(C(F)(F)F)c1	µM	=	12.7
Cc1cc2ccccc2n1CC(=O)NCC(C)C	µM	>	100
Cn1c(=O)c2c(-c3ccccc3)onc2n(C)c1=O	µM	>	100
COc1ccc(-c2ccc(/C=C/C(=O)NO)cc2)cc1	µM	=	2.14
OCC(O)C(O)c1nn(-c2ccccc2)c2nc3cc(Cl)c(Cl)cc3nc12 (centres undefined)	µM	=	63.5
OCC1OC(n2cnc3cccnc32)CC1O (centres undefined)	µM	>	100
O=C1NC(=O)/C(=C/C=C/c2ccccc2)S1	µM	=	30.4
NC(Cc1cc(I)c(O)c(I)c1)C(=O)O (centres undefined)	µM	>	500
